For each of the compounds below, state its pest or weed control at 70 g/ha.
# Test system: HORSS: barley, including spring and winter (Hordeum vulgare)
# PROCEDURE_DETAILS: Post-emergent Test III, herbicidal activity in wheat and barley
# Format: in vivo
# STATED_CONDITIONS: Hordeum vulgare, post-emergence, 504 h; 70 g ai/ha; 21 days after application; read-out: Visual Gorowth Reduction (%) 21 days After Application HORSS

q: Query (compound): C#Cc1ccc(-c2nc(C(=O)O)c(Cl)c(N)c2F)c(F)c1 ; field requested: pest or weed control at 70 g/ha
a: 45 to 59%

q: Any idea what pest or weed control at 70 g/ha was measured for Nc1c(F)c(-c2cc(F)c(I)cc2F)nc(C(=O)O)c1Cl ?
a: 95 to 100%

q: Entry under review: Nc1cc(-c2ccc(I)c(F)c2F)nc(C(=O)O)c1Cl . Reported pest or weed control at 70 g/ha?
a: 85 to 94%

q: // lookup pest or weed control at 70 g/ha for COc1c(N)nc(-c2ccc(I)c(F)c2F)nc1C(=O)O
a: 60 to 74%

q: Please give the measured pest or weed control at 70 g/ha for this compound: Nc1c(F)c(-c2ccc(Br)cc2F)nc(C(=O)O)c1Cl
a: 95 to 100%

q: Find the recorded pest or weed control at 70 g/ha belonging to COC(=O)c1nc(-c2ccc(I)c(F)c2F)c(F)c(N)c1Cl and report it.
a: 95 to 100%

q: Sample COc1c(N)nc(-c2ccc(Br)c(F)c2F)nc1C(=O)O — what was its pest or weed control at 70 g/ha?
a: 75 to 84%

q: Which pest or weed control at 70 g/ha is reported for this compound? Nc1c(F)c(-c2ccc(I)c(F)c2F)nc(C(=O)O)c1Cl
a: 95 to 100%

====

# Tested on: Key Grass and Sedge Weeds as well as Grass Crops
# PROCEDURE_DETAILS: Post-emergent Test II herbicidal activity (Table 6)
# Type: in vivo
# STATED_CONDITIONS: post-emergence, 336 h, SETFA: giant foxtail (Setaria faberi), application rate 140 g ai/ha, read-out: Visual Growth Reduction (%) 14 Days After Application, SETFA
Can you tell me pest or weed control at 140 g/ha for the items I'm about to list?

q: Which pest or weed control at 140 g/ha is reported for this compound? C#Cc1ccc(-c2cc(N)c(Cl)c(C(=O)O)n2)cc1
a: 0 to 29%

q: pest or weed control at 140 g/ha for COC(=O)c1nc(-c2cc(F)c(C(F)F)cc2F)nc(N)c1OC ?
a: 45 to 59%

q: Can you share its pest or weed control at 140 g/ha? I mean this compound: Nc1cc(-c2cc(F)c(Br)cc2F)nc(C(=O)O)c1Cl
a: 95 to 100%

q: Look up pest or weed control at 140 g/ha: C=Cc1c(N)nc(-c2ccc(F)c(F)c2F)nc1C(=O)O
a: 75 to 84%

q: Quick one: pest or weed control at 140 g/ha for Nc1c(F)c(-c2cc(F)c(C(F)F)cc2F)nc(C(=O)O)c1Cl ?
a: 85 to 94%

====

# Test system: Key Broadleaf Weed and Crop Species
# PROCEDURE_DETAILS: Post-emergent Test II herbicidal activity (Table 5)
# Assay type: in vivo
# STATED_CONDITIONS: post-emergence, 336 h; BRSNN: oilseed-rape, canola (Brassica napus); application rate 70 g ai/ha; 14 days after application; read-out: Visual Growth Reduction (%) 14 Days After Application, BRSNN
Task for the reader: assign each of the following compounds its reported pest or weed control at 70 g/ha.

q: Using the record for Nc1c(F)c(-c2ccc(Cl)c(F)c2)nc(C(=O)O)c1Cl , report its pest or weed control at 70 g/ha.
a: 85 to 94%

q: Entry under review: Nc1c(F)c(-c2ccc(I)c(F)c2)nc(C(=O)O)c1Cl . Reported pest or weed control at 70 g/ha?
a: 95 to 100%

q: # get_value(readout='pest or weed control at 70 g/ha', item= COC(=O)c1nc(-c2ccc(Cl)c(F)c2)c(F)c(N)c1Cl )
a: 75 to 84%

q: Consider the compound shown here: COC(=O)c1ccc(-c2nc(C(=O)OC)c(Cl)c(N)c2F)cc1 What is its recorded pest or weed control at 70 g/ha?
a: 0 to 29%

q: Given the entry C#Cc1ccc(-c2nc(C(=O)OC)c(Cl)c(N)c2F)c(F)c1 , report its measured pest or weed control at 70 g/ha.
a: 85 to 94%

q: // pest or weed control at 70 g/ha lookup, key: Nc1c(F)c(-c2ccc(Br)c(F)c2F)nc(C(=O)O)c1Cl
a: 95 to 100%

q: Any idea what its pest or weed control at 70 g/ha is? The compound is Nc1c(F)c(-c2ccccc2)nc(C(=O)O)c1Cl
a: 85 to 94%

q: Please report the recorded pest or weed control at 70 g/ha for COC(=O)c1nc(-c2ccc(Br)cc2)cc(N)c1Cl .
a: 0 to 29%

q: What pest or weed control at 70 g/ha value was documented for this compound, COC(=O)c1nc(-c2ccc(I)c(F)c2F)cc(N)c1Cl ?
a: 85 to 94%
